System: Streptococcus pyogenes C203
ASSAY NOTES: In vivo protection of mice experimentally infected with S. pyogenes C203
CONDITIONS: Streptococcus pyogenes, C203, sc; mice; subcutaneous; doses given 1 and 4 hours post-infection; read-out: ED50, Subcutaneous
Would you mind telling me the reported ED50 of each entry?
Answers are plain numbers, in mg/kg.

Illustrative cases are given below, each with its answer.
• CCC1OC(=O)CC(O)C(C)C(OC2OC(C)C(O)C(N(C)C)C2O)C(CCSc2nnnn2C)CC(C)C(=O)C=CC(C)=CC1COC1OC(C)C(O)C(OC)C1OC (stereo not drawn) = 2.4
• CCC1CC(C)C(=O)C=CC(C)=CC(COC2OC(C)C(O)C(O)C2OC)C(CC)OC(=O)CC(O)C(C)C1OC1OC(C)C(O)C(N(C)C)C1O (stereo not drawn) = 3.9
• CCC1OC(=O)CC(O)C(C)C(OC2OC(C)C(O)C(N(C)C)C2O)C(CCOC(=O)COc2ccccc2)CC(C)C(=O)C=CC(C)=CC1COC1OC(C)C(O)C(OC)C1OC (stereo not drawn) = 2.4
• CCC1OC(=O)CC(O)C(C)C(OC2OC(C)C(O)C(N(C)C)C2O)C(CCOc2ccc(C=O)cc2)CC(C)C(=O)C=CC(C)=CC1COC1OC(C)C(O)C(OC)C1OC (stereo not drawn) = 2.2
• CCC1OC(=O)CC(O)C(C)C(OC2OC(C)C(O)C(N(C)C)C2O)C(CCOc2ccc(C(=O)c3ccccc3)cc2)CC(C)C(=O)C=CC(C)=CC1COC1OC(C)C(O)C(OC)C1OC (stereo not drawn) = 7.2

Lab note: next compound to report on.
# input Name the reported ED50 value associated with the compound CCC1OC(=O)CC(O)C(C)C(OC2OC(C)C(O)C(N(C)C)C2O)C(CCF)CC(C)C(=O)C=CC(C)=CC1COC1OC(C)C(O)C(OC)C1OC (stereo not drawn)
# output 5

###

Would you mind telling me the reported MIC of each entry?
System: Staphylococcus aureus X400
ASSAY NOTES: MIC, standard agar-dilution assay, Staphylococcus aureus X400
Assay type: cell-based
CONDITIONS: Staphylococcus aureus X400; methicillin-resistant strain; agar dilution; read-out: MIC
Answers are plain numbers, in µg/mL.

Provide the reported MIC of each entry below, same order.
1. CCC1OC(=O)CC(O)C(C)C(OC2OC(C)C(OC3CC(C)(O)C(O)C(C)O3)C(N(C)C)C2O)C(CCOc2cccc(N(C)C)c2)CC(C)C(=O)C=CC(C)=CC1COC1OC(C)C(O)C(OC)C1OC (centres unmarked) [Compound 16]
2. CCOC(=O)C1CSC(CC2CC(C)C(=O)C=CC(C)=CC(COC3OC(C)C(O)C(OC)C3OC)C(CC)OC(=O)CC(O)C(C)C2OC2OC(C)C(O)C(N(C)C)C2O)N1 (centres unmarked) [Compound 76]
3. CCC1OC(=O)CC(O)C(C)C(OC2OC(C)C(O)C(N(C)C)C2O)C(CCOC(C)=O)CC(C)C(=O)C=CC(C)=CC1COC1OC(C)C(O)C(OC)C1OC (centres unmarked) [Compound 29, 20-DH-20-O-Acetyldesmycosin]
4. CCC1OC(=O)CC(O)C(C)C(OC2OC(C)C(OC3CC(C)(O)C(O)C(C)O3)C(N(C)C)C2O)C(CCSc2ccccc2)CC(C)C(=O)C=CC(C)=CC1COC1OC(C)C(O)C(OC)C1OC (centres unmarked) [Compound 6, 20-DH-DO-20-(Phenylthio)tylosin]
5. CCC1OC(=O)CC(O)C(C)C(OC2OC(C)C(O)C(N(C)C)C2O)C(CCOC)CC(C)C(=O)C=CC(C)=CC1COC1OC(C)C(O)C(OC)C1OC (centres unmarked) [Compound 30, 20-DH-20-O-Methyldesmycosin]

# output
1. 2
2. 2400
3. 0.5
4. 2
5. 1

###

Tested on: Streptococcus pyogenes C203
ASSAY NOTES: In vivo protection of mice experimentally infected with S. pyogenes C203
CONDITIONS: Streptococcus pyogenes, C203; mice; oral; doses given 1 and 4 hours post-infection; read-out: ED50, Oral
QUANTITY NAME: ED50

Illustrative cases are given below, each with its answer.
- CCOC(=O)c1ccc(OCCC2CC(C)C(=O)C=CC(C)=CC(COC3OC(C)C(O)C(OC)C3OC)C(CC)OC(=O)CC(O)C(C)C2OC2OC(C)C(O)C(N(C)C)C2O)cc1 (stereo not shown) [Compound 38]: 35 mg/kg
- CCC1OC(=O)CC(O)C(C)C(OC2OC(C)C(O)C(N(C)C)C2O)C(CC2Nc3ccccc3S2)CC(C)C(=O)C=CC(C)=CC1COC1OC(C)C(O)C(OC)C1OC (stereo not shown) [Compound 75]: 30 mg/kg
- CCC1OC(=O)CC(O)C(C)C(OC2OC(C)C(O)C(N(C)C)C2O)C(CCSc2nnnn2C)CC(C)C(=O)C=CC(C)=CC1COC1OC(C)C(O)C(OC)C1OC (stereo not shown) [Compound 24]: 50 mg/kg
- CCC1OC(=O)CC(O)C(C)C(OC2OC(C)C(O)C(N(C)C)C2O)C(CCOc2ccc(C(=O)c3ccccc3)cc2)CC(C)C(=O)C=CC(C)=CC1COC1OC(C)C(O)C(OC)C1OC (stereo not shown) [Compound 37, 20-DH-20-O-(p-Benzoylphenyl)desmycosin]: 18 mg/kg
- CCC1OC(=O)CC(O)C(C)C(OC2OC(C)C(O)C(N(C)C)C2O)C(CCOC)CC(C)C(=O)C=CC(C)=CC1COC1OC(C)C(O)C(OC)C1OC (stereo not shown) [Compound 30, 20-DH-20-O-Methyldesmycosin]: 25 mg/kg

Provide the reported ED50 of each entry below, same order.
1. CCC1OC(=O)CC(O)C(C)C(OC2OC(C)C(O)C(N(C)C)C2O)C(CCOc2cccc(N(C)C)c2)CC(C)C(=O)C=CC(C)=CC1COC1OC(C)C(O)C(OC)C1OC (stereo not shown) [Compound 39]
2. CCC1OC(=O)CC(O)C(C)C(OC2OC(C)C(O)C(N(C)C)C2O)C(CC2SCCN2Cc2ccccc2)CC(C)C(=O)C=CC(C)=CC1COC1OC(C)C(O)C(OC)C1OC (stereo not shown) [Compound 77]

# output
1. 19 mg/kg
2. 19 mg/kg

Provide the reported ED50 of each entry below, same order.
1. CCC1OC(=O)CC(O)C(C)C(OC2OC(C)C(O)C(N(C)C)C2O)C(CCOC(=O)COc2ccccc2)CC(C)C(=O)C=CC(C)=CC1COC1OC(C)C(O)C(OC)C1OC (stereo not shown) [Compound 26, 20-DH-20-O-(Phenoxyacetyl)desmycosin]
2. CCC1OC(=O)CC(O)C(C)C(OC2OC(C)C(O)C(N(C)C)C2O)C(CCOc2ccc(OC)cc2)CC(C)C(=O)C=CC(C)=CC1COC1OC(C)C(O)C(OC)C1OC (stereo not shown) [Compound 35, 20-DH-20-O-(p-Methoxyphenyl)desmycosin]

# output
1: > 25 mg/kg; 2: 11 mg/kg

# input Name the reported ED50 value associated with the compound CCC1OC(=O)CC(O)C(C)C(OC2OC(C)C(OC3CC(C)(O)C(O)C(C)O3)C(N(C)C)C2O)C(C)CC(C)C(=O)C=CC(C)=CC1COC1OC(C)C(O)C(O)C1OC (stereo not shown) [Compound 54, 20-Deformylmacrocin]
# output 31 mg/kg

###

System: Staphylococcus aureus
ASSAY NOTES: MIC, broth-dilution microtiter test, Staphylococcus aureus
Assay type: cell-based
CONDITIONS: broth-dilution microtiter
QUANTITY NAME: MIC (µg/mL)
One number for each entry, in µg/mL.

Illustrative cases are given below, each with its answer.
• CCC1OC(=O)CC(O)C(C)C(OC2OC(C)C(O)C(N(C)C)C2O)C(CCOc2cccc(Oc3ccccc3)c2)CC(C)C(=O)C=CC(C)=CC1COC1OC(C)C(O)C(OC)C1OC (stereo not drawn) = 0.78
• CCC1OC(=O)CC(O)C(C)C(OC2OC(C)C(OC3CC(C)(O)C(O)C(C)O3)C(N(C)C)C2O)C(CCOc2ccccc2)CC(C)C(=O)C=CC(C)=CC1COC1OC(C)C(O)C(O)C1OC (stereo not drawn) = 0.39
• CCC1OC(=O)CC(O)C(C)C(OC2OC(C)C(O)C(N(C)C)C2O)C(CCOc2ccc(CN3CCCCCC3)cc2)CC(C)C(=O)C=CC(C)=CC1COC1OC(C)C(O)C(OC)C1OC (stereo not drawn) = 1.56
• CC[C@H]1OC(=O)C[C@@H](O)[C@H](C)[C@@H](O[C@@H]2O[C@H](C)[C@H](O)[C@H](N(C)C)[C@H]2O)[C@@H](CCOc2ccccc2)C[C@@H](C)C(=O)/C=C/C(C)=C/[C@@H]1COC1O[C@H](C)[C@@H](O)[C@@H](OC)[C@H]1OC (stereo partly drawn) = 0.39
• CCC(=O)OC1C(OC2C(CCCl)CC(C)C(=O)C=CC(C)=CC(COC3OC(C)C(O)C(OC)C3OC)C(CC)OC(=O)CC(O)C2C)OC(C)C(O)C1N(C)C (stereo not drawn) = 0.78

Lab note: next compound to report on.
# input Name the reported MIC value associated with the compound CCC1OC(=O)CC(O)C(C)C(OC2OC(C)C(O)C(N(C)C)C2OC(C)=O)C(CCOc2ccccc2)CC(C)C(=O)C=CC(C)=CC1COC1OC(C)C(O)C(OC)C1OC (stereo not drawn)
# output 0.78
